system tested: UniProt:Q9Y4D2
Sequence (Q9Y4D2 whole entry): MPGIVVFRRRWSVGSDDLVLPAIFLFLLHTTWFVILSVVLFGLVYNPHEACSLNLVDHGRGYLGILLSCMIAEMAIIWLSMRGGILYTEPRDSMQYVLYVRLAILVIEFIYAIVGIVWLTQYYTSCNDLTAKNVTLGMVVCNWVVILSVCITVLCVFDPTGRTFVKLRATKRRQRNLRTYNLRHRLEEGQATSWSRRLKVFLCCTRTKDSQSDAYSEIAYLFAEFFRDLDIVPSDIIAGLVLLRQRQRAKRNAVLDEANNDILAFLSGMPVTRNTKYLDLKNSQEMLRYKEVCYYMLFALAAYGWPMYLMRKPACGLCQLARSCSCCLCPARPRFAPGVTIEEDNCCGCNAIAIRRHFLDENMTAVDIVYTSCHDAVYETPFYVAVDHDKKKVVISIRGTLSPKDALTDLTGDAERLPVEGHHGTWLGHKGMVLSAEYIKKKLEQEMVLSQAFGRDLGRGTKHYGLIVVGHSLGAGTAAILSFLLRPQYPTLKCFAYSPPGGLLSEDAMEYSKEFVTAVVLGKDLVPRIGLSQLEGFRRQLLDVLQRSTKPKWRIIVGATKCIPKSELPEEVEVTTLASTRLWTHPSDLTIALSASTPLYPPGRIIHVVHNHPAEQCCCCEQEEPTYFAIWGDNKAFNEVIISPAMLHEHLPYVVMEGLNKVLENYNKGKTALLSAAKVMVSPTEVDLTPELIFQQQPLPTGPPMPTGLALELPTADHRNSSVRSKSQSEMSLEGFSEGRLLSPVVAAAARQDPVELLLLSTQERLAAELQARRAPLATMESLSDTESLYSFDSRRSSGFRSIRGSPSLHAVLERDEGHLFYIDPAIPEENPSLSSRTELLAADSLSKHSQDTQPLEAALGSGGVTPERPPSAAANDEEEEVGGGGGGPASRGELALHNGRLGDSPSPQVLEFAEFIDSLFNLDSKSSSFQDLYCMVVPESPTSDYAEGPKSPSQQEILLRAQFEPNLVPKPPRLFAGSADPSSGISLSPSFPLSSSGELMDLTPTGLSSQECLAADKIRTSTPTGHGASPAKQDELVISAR
run description: competitive ABPP, membrane proteome of transfected HEK293T cells
Assay type: biochemical
conditions used: read-out: DAGLα IC50
Description: Compounds 19 and 20 were tested for in vitro inhibition of DAGLα and DAGLβ as measured by competitive activity-based protein profiling (ABPP) of […] using a HT-01 probe (targets DAGLα and DAGLβ) and a FP-Rh probe (targets serine hydrolases). […] The percentage of DAGL activity remaining in the assayed samples was determined by measuring the integrated optical intensity of the fluorescent protein bands of the Western Blot using image lab 4.1. […]
pIC50: −log10 of the molar value.
measured parameter: pIC50

GET /values?readout=pIC50&item= Cc1cncc(C)c1-c1ccc(-c2cn(C(=O)N3CCCCC3Cc3ccccc3)nn2)cc1 (stereo not shown) [Compound 71]
≥ 6.40

GET /values?readout=pIC50&item= CCC(CC)CN(CCc1ccncc1)C(=O)n1cc(-c2ccc(OC(F)(F)F)cc2)nn1 [Compound 53]
5.70 to 6.40

Give pIC50 for each listed item.
1. COc1cc(C)cc(OC)c1-c1ccc(-c2cn(C(=O)N3CCCCC3Cc3ccncc3)nn2)cc1 (stereo not shown) [Compound 68]
2. COc1cc(C(N)=O)cc(OC)c1-c1ccc(-c2cn(C(=O)N3CCCCC3Cc3ccccc3)nn2)cc1 (stereo not shown) [Compound 78]

1. ≥ 6.40
2. 5.70 to 6.40
